- test.method.notes: Cytotoxicity against human WI38 cells assessed as inhibition of cell proliferation at 100 uM after 48 hrs by CellTiter-Glo assay relative to control
- Assay type: cell-based, WI-38
Exercise: state measured inhibition at 48 h, 100 µM for each of the compounds provided.
Reply with just the number (in %).

Consider the compound `COC(=O)/C=C/NC(=O)[C@@H](O)C(C)(C)CO` and give its measured inhibition at 48 h, 100 µM.
-18

Consider the compound `COC(=O)/C=C/NC(=O)[C@H](O)C(C)(C)CO` and give its measured inhibition at 48 h, 100 µM.
4

Consider the compound `CCOC(=O)/C=C\NC(=O)[C@@H](O)C(C)(C)CO` and give its measured inhibition at 48 h, 100 µM.
-6

Consider the compound `CC(C)(CO)[C@H](O)C(=O)N/C=C/C(=O)O` and give its measured inhibition at 48 h, 100 µM.
17

Consider the compound `CC(C)(CO)[C@@H](O)C(=O)N/C=C\C(=O)OCc1ccccc1` and give its measured inhibition at 48 h, 100 µM.
4

Consider the compound `CC(C)(CO)[C@@H](O)C(=O)N/C=C/C(=O)O` and give its measured inhibition at 48 h, 100 µM.
-23

Consider the compound `CC(C)(CO)[C@H](O)C(=O)N/C=C\C(=O)O` and give its measured inhibition at 48 h, 100 µM.
-19

Consider the compound `CCOC(=O)/C=C\NC(=O)[C@H](O)C(C)(C)CO` and give its measured inhibition at 48 h, 100 µM.
1

Consider the compound `CC(C)(C)OC(=O)/C=C/NC(=O)[C@H](O)C(C)(C)CO` and give its measured inhibition at 48 h, 100 µM.
0

Consider the compound `CC(C)(C)OC(=O)/C=C\NC(=O)[C@H](O)C(C)(C)CO` and give its measured inhibition at 48 h, 100 µM.
-14

Consider the compound `CC(C)(C)OC(=O)/C=C\NC(=O)[C@@H](O)C(C)(C)CO` and give its measured inhibition at 48 h, 100 µM.
26

Consider the compound `CC(C)(CO)[C@H](O)C(=O)N/C=C/C(=O)OCc1ccccc1` and give its measured inhibition at 48 h, 100 µM.
19

Consider the compound `CC(C)(C)OC(=O)/C=C/NC(=O)[C@@H](O)C(C)(C)CO` and give its measured inhibition at 48 h, 100 µM.
14

Consider the compound `CC(C)(CO)[C@H](O)C(=O)N/C=C\C(=O)OCc1ccccc1` and give its measured inhibition at 48 h, 100 µM.
-2

Consider the compound `COC(=O)/C=C\NC(=O)[C@@H](O)C(C)(C)CO` and give its measured inhibition at 48 h, 100 µM.
-20

Consider the compound `CCOC(=O)/C=C/NC(=O)[C@@H](O)C(C)(C)CO` and give its measured inhibition at 48 h, 100 µM.
-6

Consider the compound `CC(C)(CO)[C@@H](O)C(=O)N/C=C/C(=O)OCc1ccccc1` and give its measured inhibition at 48 h, 100 µM.
19

Consider the compound `CCOC(=O)/C=C/NC(=O)[C@H](O)C(C)(C)CO` and give its measured inhibition at 48 h, 100 µM.
36

###

Exercise: state measured inhibition at 96 h, 100 µM for each of the molecules provided.
- test.method.notes: Cytotoxicity against HEK293 cells assessed as inhibition of cell proliferation at 100 uM after 96 hrs by CellTiter-Glo assay relative to control
- Format: cell-based
- condition.description: human
Reply with just the number (in %).

Consider the molecule `CCOC(=O)/C=C\NC(=O)[C@@H](O)C(C)(C)CO` and give its measured inhibition at 96 h, 100 µM.
-6

Consider the molecule `CC(C)(C)OC(=O)/C=C/NC(=O)[C@@H](O)C(C)(C)CO` and give its measured inhibition at 96 h, 100 µM.
-8

Consider the molecule `CC(C)(C)OC(=O)/C=C\NC(=O)[C@H](O)C(C)(C)CO` and give its measured inhibition at 96 h, 100 µM.
-9

Consider the molecule `CC(C)(CO)[C@@H](O)C(=O)N/C=C\C(=O)OCc1ccccc1` and give its measured inhibition at 96 h, 100 µM.
7

Consider the molecule `CC(C)(CO)[C@H](O)C(=O)N/C=C/C(=O)O` and give its measured inhibition at 96 h, 100 µM.
-10

Consider the molecule `CCOC(=O)/C=C/NC(=O)[C@@H](O)C(C)(C)CO` and give its measured inhibition at 96 h, 100 µM.
-9

Consider the molecule `COC(=O)/C=C/NC(=O)[C@H](O)C(C)(C)CO` and give its measured inhibition at 96 h, 100 µM.
0

###

- test.method.notes: Selectivity index, ratio of cytotoxic concentration for HEK293 cells to IC50 for Plasmodium falciparum 3D7 infected in human erythrocytes in presence of 1 uM pantothenate
- Format: toxicity, cell-based
- condition.description: read-out: Selectivity Index
Exercise: state measured selectivity ratio for each of the molecules provided.

Consider the molecule `CC(C)(CO)[C@@H](O)C(=O)N/C=C/C(=O)OCc1ccccc1` and give its measured selectivity ratio.
> 8

Consider the molecule `CCOC(=O)/C=C/NC(=O)[C@H](O)C(C)(C)CO` and give its measured selectivity ratio.
> 0.6

Consider the molecule `CC(C)(CO)[C@@H](O)C(=O)N/C=C/C(=O)O` and give its measured selectivity ratio.
> 3

Consider the molecule `CC(C)(C)OC(=O)/C=C/NC(=O)[C@H](O)C(C)(C)CO` and give its measured selectivity ratio.
> 2

###

- assayed.system: Pantothenate kinase, putative (Plasmodium falciparum (isolate 3D7))
- test.method.notes: Inhibition of pantothenate kinase in Plasmodium falciparum 3D7 trophozoites at 100 uM using [14C]pantothenate as substrate after 15 to 60 mins by TopCount scintillation counting method relative to control
Active and inactive are the calls of the source. The calls are words filed in the database; no cut-off is given here.
reported.metric: inhibition

Solved cases (10 shown):
- CCOC(=O)/C(C)=C/NC(=O)c1ccccc1: inactive
- CC(C)(CO)[C@@H](O)C(=O)N/C=C\C(=O)OCc1ccccc1: < 25%
- CC(C)(CO)[C@H](O)C(=O)N/C=C\C(=O)O: < 25%
- CCOC(=O)/C=C\NC(=O)[C@@H](O)C(C)(C)CO: < 25%
- CCOC(=O)/C=C/N1CCCCCCCC1=O: inactive
- CC(C)(C)OC(=O)/C=C\NC(=O)[C@@H](O)C(C)(C)CO: < 25%
- CCOC(=O)/C=C/NC(=O)[C@H](O)C(C)(C)CO: > 90%
- COC(=O)/C=C/NC(=O)[C@@H](O)C(C)(C)CO: < 25%
- CC(C)(CO)[C@@H](O)C(=O)N/C=C/C(=O)OCc1ccccc1: > 90%
- COC(=O)/C=C/NC(=O)[C@H](O)C(C)(C)CO: > 90%

Consider the molecule `CC(C)(CO)[C@H](O)C(=O)N/C=C/C(=O)O` and give its measured inhibition.
< 25%

Consider the molecule `CC(C)(CO)[C@H](O)C(=O)N/C=C\C(=O)OCc1ccccc1` and give its measured inhibition.
< 25%

Consider the molecule `CCOC(=O)/C=C/N1CCCCCCC1=O` and give its measured inhibition.
inactive

Consider the molecule `COC(=O)/C=C\NC(=O)[C@H](O)C(C)(C)CO` and give its measured inhibition.
< 25%

Consider the molecule `CCOC(=O)/C=C/N1CCCCCC1=O` and give its measured inhibition.
inactive

Consider the molecule `COC(=O)/C=C\NC(=O)[C@@H](O)C(C)(C)CO` and give its measured inhibition.
< 25%

Consider the molecule `CC(C)(C)OC(=O)/C=C\NC(=O)[C@H](O)C(C)(C)CO` and give its measured inhibition.
< 25%

Consider the molecule `CC(C)(CO)[C@@H](O)C(=O)N/C=C/C(=O)O` and give its measured inhibition.
87%

Consider the molecule `CC(C)(CO)[C@@H](O)C(=O)N/C=C\C(=O)O` and give its measured inhibition.
< 25%

Consider the molecule `CCOC(=O)/C=C/NC(=O)[C@@H](O)C(C)(C)CO` and give its measured inhibition.
< 25%

Consider the molecule `CCOC(=O)/C=C\NC(=O)[C@H](O)C(C)(C)CO` and give its measured inhibition.
< 25%

Consider the molecule `CCOC(=O)/C=C/NC(=O)[C@@H]1OC(C)(C)OCC1(C)C` and give its measured inhibition.
inactive

Consider the molecule `CCOC(=O)/C=C/NC(=O)c1cccnc1` and give its measured inhibition.
inactive

Consider the molecule `CCOC(=O)/C=C/NC(=O)c1ccccc1` and give its measured inhibition.
inactive

###

Exercise: state measured selectivity ratio for each of the molecules provided.
- test.method.notes: Selectivity index, ratio of cytotoxic concentration for human WI38 cells to IC50 for Plasmodium falciparum 3D7 infected in human erythrocytes in presence of 1 uM pantothenate
- Type: toxicity, cell-based
- condition.description: read-out: Selectivity Index

Consider the molecule `CCOC(=O)/C=C/NC(=O)[C@H](O)C(C)(C)CO` and give its measured selectivity ratio.
> 0.6

Consider the molecule `CC(C)(C)OC(=O)/C=C/NC(=O)[C@H](O)C(C)(C)CO` and give its measured selectivity ratio.
> 2

Consider the molecule `CC(C)(CO)[C@@H](O)C(=O)N/C=C/C(=O)O` and give its measured selectivity ratio.
> 3

Consider the molecule `CC(C)(CO)[C@@H](O)C(=O)N/C=C/C(=O)OCc1ccccc1` and give its measured selectivity ratio.
> 8

Origin of values: ChEMBL document CHEMBL4138249
